read-out: Transforming Growth Factor (TGFA), TGFA (gene 7039); assay: LTEA_HepaRG_TGFA: Life Technologies and Expression Analysis (LTEA) Assay for Transforming Growth Factor (TGFA) using HepaRG (AID 2283532); details: mRNA level, 48 h; actives raise or lower the signal
Active and inactive are the calls of the source. Rule for the calls: active = hit-call score of the fitted dose curve at least 0.9, where 1 is the maximum; inactive = score below 0.9.
Assay Metric: AC50

Example results:
CCOc1cc(C(C)(C)C)ccc1C1COC(c2c(F)cccc2F)=N1 (stereo unspecified)    inactive
COc1ccc(-c2ccccc2)cc1NNC(=O)OC(C)C    inactive
C=CCOC(=O)C(C)(C)OC(=O)c1cc(-n2c(=O)cc(C(F)(F)F)n(C)c2=O)ccc1Cl    inactive
CC(C)N1C(=O)c2ccccc2NS1(=O)=O    inactive
C=C(C)CN(CC)c1c([N+](=O)[O-])cc(C(F)(F)F)cc1[N+](=O)[O-]    inactive

Next:
Entry CO/N=C(/C1=NOCCO1)c1ccccc1Oc1ncnc(Oc2ccccc2Cl)c1F , AC50 reported as 31.2 µM (active)
